Catalogue of compounds with associated MIC
Tested on: Escherichia coli
TEST_PROTOCOL: In vitro antibacterial activity against Escherichia coli strain GC 2205, expressed as MIC(minimum inhibitory concentration)
Assay type: functional
Field: numeric (µg/mL). Do not append units.

In the examples that follow, each entry is paired with its recorded MIC.
COC(=O)[C@H]1O[C@H](CO)[C@H]1SC1=C(C(=O)[O-])N2C(=O)[C@H]([C@@H](C)O)[C@H]2[C@H]1C.[Na+]
0.25
C[C@H]1C(S[C@H]2[C@@H](CN)O[C@@H]2CO)=C(C(=O)O)N2C(=O)[C@H]([C@@H](C)O)C12 (stereo partly drawn)
0.25
C[C@@H](O)[C@H]1C(=O)N2C(C(=O)[O-])=C(S[C@H]3[C@@H](C(=O)N(C)C)O[C@@H]3CO)[C@H](C)[C@H]12.[Na+]
0.5
C[C@@H](O)[C@H]1C(=O)N2C(C(=O)O)=C(SCCNC=N)C[C@H]12 [IMIPENEM ANHYDROUS]
0.12
COC(=O)[C@H]1O[C@H](COS(=O)(=O)c2ccc(C)cc2)[C@H]1SC1=C(C(=O)[O-])N2C(=O)[C@H]([C@@H](C)O)[C@H]2[C@H]1C.[Na+]
2

Query (compound): `COC(=O)[C@H]1O[C@H](CN)[C@H]1SC1=C(C(=O)O)N2C(=O)[C@H]([C@@H](C)O)[C@H]2[C@H]1C` ; field requested: MIC 0.5

Query (compound): C[C@H]1C(S[C@@H]2[C@@H](C)O[C@@H]2CN)=C(C(=O)[O-])N2C(=O)[C@H]([C@@H](C)O)C12.[Na+] (stereo partly drawn) ; field requested: MIC 0.25

###

System: Morganella morganii
TEST_PROTOCOL: In vitro antibacterial activity against Morganella morganii strain GC 2213, expressed as MIC(minimum inhibitory concentration)
Assay type: functional
Catalogue of molecules with associated MIC
Field: numeric (µg/mL). Do not append units.

C[C@@H](O)[C@H]1C(=O)N2C(C(=O)O)=C(SCCNC=N)C[C@H]12 [IMIPENEM ANHYDROUS]
2
C[C@@H](O)[C@H]1C(=O)N2C(C(=O)[O-])=C(S[C@H]3[C@@H](C(=O)N(C)C)O[C@@H]3CO)[C@H](C)[C@H]12.[Na+]
4
C[C@H]1C(S[C@@H]2[C@@H](C)O[C@@H]2CN)=C(C(=O)[O-])N2C(=O)[C@H]([C@@H](C)O)C12.[Na+] (stereo partly drawn)
4
COC(=O)[C@H]1O[C@H](CO)[C@H]1SC1=C(C(=O)[O-])N2C(=O)[C@H]([C@@H](C)O)[C@H]2[C@H]1C.[Na+]
4
COC(=O)[C@H]1O[C@H](CN)[C@H]1SC1=C(C(=O)O)N2C(=O)[C@H]([C@@H](C)O)[C@H]2[C@H]1C
16
CC1C(S[C@@H]2CCO[C@@H]2CN)=C(C(=O)O)N2C(=O)[C@H]([C@@H](C)O)[C@@H]12 (single isomer, unassigned)
0.5

// switching to the query molecule
Query (molecule): C[C@H]1C(S[C@H]2[C@@H](CN)O[C@@H]2CO)=C(C(=O)O)N2C(=O)[C@H]([C@@H](C)O)C12 (stereo partly drawn) ; field requested: MIC 2

###

Tested on: Staphylococcus aureus
TEST_PROTOCOL: In vitro antibacterial activity against Staphylococcus aureus strain GC 2220, expressed as MIC(minimum inhibitory concentration)
Assay type: functional
REPORTED_METRIC: MIC (µg/mL)
Field: numeric (µg/mL). Do not append units.

In the examples that follow, each entry is paired with its recorded MIC.
COC(=O)[C@H]1O[C@H](CN)[C@H]1SC1=C(C(=O)O)N2C(=O)[C@H]([C@@H](C)O)[C@H]2[C@H]1C
32
COC(=O)[C@H]1O[C@H](COS(=O)(=O)c2ccc(C)cc2)[C@H]1SC1=C(C(=O)[O-])N2C(=O)[C@H]([C@@H](C)O)[C@H]2[C@H]1C.[Na+]
64
C[C@H]1C(S[C@H]2[C@@H](CN)O[C@@H]2CO)=C(C(=O)O)N2C(=O)[C@H]([C@@H](C)O)C12 (stereo partly drawn)
8

Form field: MIC recorded for `COC(=O)[C@H]1O[C@H](CO)[C@H]1SC1=C(C(=O)[O-])N2C(=O)[C@H]([C@@H](C)O)[C@H]2[C@H]1C.[Na+]` with Staphylococcus aureus (enter value) 32
